- study target: αIIbβ3 integrin (Homo sapiens, UniProt P05106+P08514)
- Construct: from tissue; host or cells: human platelets (Triton X-100 lysate)
- Sequence (P08514 32-887 limits assumed): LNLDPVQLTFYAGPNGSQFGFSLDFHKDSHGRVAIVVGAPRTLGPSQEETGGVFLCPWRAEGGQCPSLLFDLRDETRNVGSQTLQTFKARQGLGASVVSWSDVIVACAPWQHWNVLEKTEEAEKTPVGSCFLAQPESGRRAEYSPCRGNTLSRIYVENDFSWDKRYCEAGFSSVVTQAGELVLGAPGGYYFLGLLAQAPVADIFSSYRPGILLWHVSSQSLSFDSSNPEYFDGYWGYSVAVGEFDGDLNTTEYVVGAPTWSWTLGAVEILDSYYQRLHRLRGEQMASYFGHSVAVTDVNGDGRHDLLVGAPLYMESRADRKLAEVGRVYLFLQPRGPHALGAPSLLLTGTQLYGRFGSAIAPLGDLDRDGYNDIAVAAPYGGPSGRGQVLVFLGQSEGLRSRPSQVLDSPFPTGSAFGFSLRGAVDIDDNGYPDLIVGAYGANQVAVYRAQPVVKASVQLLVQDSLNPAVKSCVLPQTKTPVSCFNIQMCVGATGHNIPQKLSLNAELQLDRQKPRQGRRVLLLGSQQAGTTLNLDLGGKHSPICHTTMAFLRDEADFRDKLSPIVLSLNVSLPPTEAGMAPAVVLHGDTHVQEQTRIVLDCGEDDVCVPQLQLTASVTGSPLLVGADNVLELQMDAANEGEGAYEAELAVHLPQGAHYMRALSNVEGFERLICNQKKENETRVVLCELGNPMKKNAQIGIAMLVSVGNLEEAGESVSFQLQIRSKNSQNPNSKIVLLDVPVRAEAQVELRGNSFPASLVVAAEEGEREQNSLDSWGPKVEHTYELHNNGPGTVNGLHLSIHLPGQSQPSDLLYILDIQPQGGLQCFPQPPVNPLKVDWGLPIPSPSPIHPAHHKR
- Sequence (P08514 891-1039 partner limits assumed): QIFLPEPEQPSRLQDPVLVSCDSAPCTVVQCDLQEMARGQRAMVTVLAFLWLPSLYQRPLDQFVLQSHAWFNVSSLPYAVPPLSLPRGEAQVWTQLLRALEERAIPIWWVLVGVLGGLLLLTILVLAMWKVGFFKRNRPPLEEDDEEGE
- Sequence (P05106 27-788): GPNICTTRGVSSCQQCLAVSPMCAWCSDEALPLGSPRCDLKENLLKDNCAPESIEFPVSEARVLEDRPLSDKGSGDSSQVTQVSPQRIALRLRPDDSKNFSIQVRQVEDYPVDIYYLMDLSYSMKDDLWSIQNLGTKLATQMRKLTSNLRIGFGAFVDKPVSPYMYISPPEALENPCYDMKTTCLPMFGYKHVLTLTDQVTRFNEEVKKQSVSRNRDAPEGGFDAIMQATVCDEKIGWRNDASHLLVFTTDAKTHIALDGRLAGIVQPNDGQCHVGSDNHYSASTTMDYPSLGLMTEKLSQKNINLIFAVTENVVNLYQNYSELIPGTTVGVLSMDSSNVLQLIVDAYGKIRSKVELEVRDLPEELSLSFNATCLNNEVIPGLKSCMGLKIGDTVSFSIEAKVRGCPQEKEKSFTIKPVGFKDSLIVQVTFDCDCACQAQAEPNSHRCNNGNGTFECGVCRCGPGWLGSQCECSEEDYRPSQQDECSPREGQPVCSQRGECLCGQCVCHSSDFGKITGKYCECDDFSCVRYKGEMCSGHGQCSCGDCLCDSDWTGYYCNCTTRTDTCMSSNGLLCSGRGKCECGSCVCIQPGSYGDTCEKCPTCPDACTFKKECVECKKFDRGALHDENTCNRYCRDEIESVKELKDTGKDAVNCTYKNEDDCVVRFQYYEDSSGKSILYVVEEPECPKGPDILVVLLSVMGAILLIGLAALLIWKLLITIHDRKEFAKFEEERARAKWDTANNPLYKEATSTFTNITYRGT
- test method notes: Assay for the inhibition of αIIbβ3 integrin binding (fibrinogen as ligand, integrin captured from platelet lysate)
- condition summary: inhibition of specific binding of biotinylated fibrinogen to αIIbβ3 integrin from human platelet lysate
assay metric: IC50 (nM)

[
  {
    "compound": "Cc1cc(C)c(S(=O)(=O)N[C@@H](CCC(=O)N2CCN(c3cccc(NC4=NCCCN4)c3)CC2)C(=O)O)c(C)c1 [Ex. 140]",
    "study target": "αIIbβ3 integrin (Homo sapiens, UniProt P05106+P08514)",
    "assay metric": "IC50",
    "reported measurement": 30
  },
  {
    "compound": "O=C(N[C@@H](CNC(=O)C1CCN(c2cc(NC3=NCCCN3)ccn2)CC1)C(=O)O)OCc1ccccc1 [Ex. 159]",
    "study target": "αIIbβ3 integrin (Homo sapiens, UniProt P05106+P08514)",
    "assay metric": "IC50",
    "reported measurement": 86
  },
  {
    "compound": "O=C(N[C@@H](CNC(=O)C1CCN(c2cc(NC3=NCC(F)CN3)ccn2)CC1)C(=O)O)OCc1ccccc1 (stereo partly shown) [Ex. 160]",
    "study target": "αIIbβ3 integrin (Homo sapiens, UniProt P05106+P08514)",
    "assay metric": "IC50",
    "reported measurement": 67
  },
  {
    "compound": "O=C(N[C@@H](CCC(=O)N1CCC(c2cccc(NC3=NCCCN3)c2)CC1)C(=O)O)OCc1ccccc1 [Ex. 148]",
    "study target": "αIIbβ3 integrin (Homo sapiens, UniProt P05106+P08514)",
    "assay metric": "IC50",
    "reported measurement": 420
  },
  {
    "compound": "O=C(N[C@@H](CCC(=O)N1CCN(c2cccc(NC3=NCC(F)CN3)c2)CC1)C(=O)O)OCc1ccccc1 (stereo partly shown) [Ex. 124]",
    "study target": "αIIbβ3 integrin (Homo sapiens, UniProt P05106+P08514)",
    "assay metric": "IC50",
    "reported measurement": 540
  },
  {
    "compound": "CCCCCCCCCCOC(=O)N[C@@H](CNC(=O)C1CCN(c2cccc(NC3=NCCCN3)c2)CC1)C(=O)O [Ex. 90]",
    "study target": "αIIbβ3 integrin (Homo sapiens, UniProt P05106+P08514)",
    "assay metric": "IC50",
    "reported measurement": 260
  },
  {
    "compound": "COc1ccc(NC2=NCCCN2)cc1N1CCN(C(=O)CC[C@H](NC(=O)OCc2ccccc2)C(=O)O)CC1 [Ex. 154]",
    "study target": "αIIbβ3 integrin (Homo sapiens, UniProt P05106+P08514)",
    "assay metric": "IC50",
    "reported measurement": 530
  }
]
